Can you tell me fold changes relative to vehicle control for the items I'm about to list?
system: HeLa cell extract proteins (Homo sapiens, UniProt P63244)
Construct: endogenous in cells; host or cells: HeLa cell extract
Format: binding
applied.conditions: HeLa; protein GNB2L1
Respond numerically, and do not add a unit to the figure.

Exam item: Give the measured fold changes relative to vehicle control of NCCCNc1ccc(C(=O)NC(CCC(=O)O)C(=O)O)cc1 (stereo not drawn) [compound 7] .
Marked response: 0.99

Exam item: Give the measured fold changes relative to vehicle control of CCCCCCOc1cccc(Cc2cnc(N)nc2N)c1 [compound 2] .
Marked response: 1.19

Exam item: Give the measured fold changes relative to vehicle control of Nc1nc2c(c(=O)[nH]1)N(C=O)C(CNc1ccc(C(=O)N[C@@H](CCC(=O)O)C(=O)O)cc1)CN2 (stereo partly drawn) [LEU, leucovorin] .
Marked response: 1.08

Exam item: Give the measured fold changes relative to vehicle control of CCCCCCOc1ccc(Cc2cnc(N)nc2N)cc1 [compound 1] .
Marked response: 1.12

Exam item: Give the measured fold changes relative to vehicle control of NCCOCCOCC(=O)Nc1nc2ncc(CNc3ccc(C(=O)NC(CCC(=O)O)C(=O)O)cc3)nc2c(=O)[nH]1 (stereo not drawn) [compound 6] .
Marked response: 1.12

Exam item: Give the measured fold changes relative to vehicle control of Nc1nc2cccc(-c3ccccc3)c2n1Cc1ccc(Cl)c(Cl)c1 [compound 3] .
Marked response: 1.12

* * *

system: HeLa cell extract proteins (Homo sapiens)
Construct: endogenous in cells; host or cells: HeLa cell extract
Type: binding
applied.conditions: protein CDC73; HeLa
Record 1 (yes) whenever fold changes relative to vehicle control is at 0.9 or higher; record 0 (no) when lower.

Exam item: Say whether CCCCCCOc1ccc(Cc2cnc(N)nc2N)cc1 shows fold changes relative to vehicle control of 0.9 or more.
Marked response: 1 (yes)

Exam item: Say whether Nc1nc2c(c(=O)[nH]1)N(C=O)C(CNc1ccc(C(=O)N[C@@H](CCC(=O)O)C(=O)O)cc1)CN2 (stereo partly drawn) shows fold changes relative to vehicle control of 0.9 or more.
Marked response: 0 (no)

Exam item: Say whether CCCCCCOc1cccc(Cc2cnc(N)nc2N)c1 shows fold changes relative to vehicle control of 0.9 or more.
Marked response: 1 (yes)

Exam item: Say whether NCCCNc1ccc(C(=O)NC(CCC(=O)O)C(=O)O)cc1 (stereo not drawn) shows fold changes relative to vehicle control of 0.9 or more.
Marked response: 0 (no)

* * *

Can you tell me fold changes relative to vehicle control for the items I'm about to list?
system: HeLa cell extract proteins (Homo sapiens, UniProt O00746)
Construct: endogenous in cells; host or cells: HeLa cell extract
Sequence (O00746 29-187): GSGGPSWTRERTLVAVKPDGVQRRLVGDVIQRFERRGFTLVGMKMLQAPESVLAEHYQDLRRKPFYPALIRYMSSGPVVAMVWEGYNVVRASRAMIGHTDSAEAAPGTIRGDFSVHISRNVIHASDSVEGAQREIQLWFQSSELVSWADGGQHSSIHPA
Format: binding
applied.conditions: HeLa; protein NME4
Respond numerically, and do not add a unit to the figure.

Exam item: Give the measured fold changes relative to vehicle control of Nc1nc2cccc(-c3ccccc3)c2n1Cc1ccc(Cl)c(Cl)c1 .
Marked response: 0.96

Exam item: Give the measured fold changes relative to vehicle control of NCCOCCOCC(=O)Nc1nc2ncc(CNc3ccc(C(=O)NC(CCC(=O)O)C(=O)O)cc3)nc2c(=O)[nH]1 (stereo not drawn) .
Marked response: 0.81

Exam item: Give the measured fold changes relative to vehicle control of CCCCCCOc1cccc(Cc2cnc(N)nc2N)c1 .
Marked response: 0.92

Exam item: Give the measured fold changes relative to vehicle control of CCCCCCOc1ccc(Cc2cnc(N)nc2N)cc1 .
Marked response: 0.97

Exam item: Give the measured fold changes relative to vehicle control of Nc1nc2c(c(=O)[nH]1)N(C=O)C(CNc1ccc(C(=O)N[C@@H](CCC(=O)O)C(=O)O)cc1)CN2 (stereo partly drawn) .
Marked response: 1.04

Exam item: Give the measured fold changes relative to vehicle control of NCCCNc1ccc(C(=O)NC(CCC(=O)O)C(=O)O)cc1 (stereo not drawn) .
Marked response: 0.98

* * *

system: HeLa cell extract proteins (Homo sapiens)
Construct: endogenous in cells; host or cells: HeLa cell extract
Assay type: binding
applied.conditions: HeLa; protein SEC23B
Could you please mark TRUE for values of fold changes relative to vehicle control below 1 and FALSE for values at or above it?

Exam item: Identify whether the compound Nc1nc2cccc(-c3ccccc3)c2n1Cc1ccc(Cl)c(Cl)c1 records fold changes relative to vehicle control below 1.
Marked response: FALSE

Exam item: Identify whether the compound NCCOCCOCC(=O)Nc1nc2ncc(CNc3ccc(C(=O)NC(CCC(=O)O)C(=O)O)cc3)nc2c(=O)[nH]1 (stereo not drawn) records fold changes relative to vehicle control below 1.
Marked response: TRUE

Exam item: Identify whether the compound CCCCCCOc1cccc(Cc2cnc(N)nc2N)c1 records fold changes relative to vehicle control below 1.
Marked response: TRUE

Exam item: Identify whether the compound NCCCNc1ccc(C(=O)NC(CCC(=O)O)C(=O)O)cc1 (stereo not drawn) records fold changes relative to vehicle control below 1.
Marked response: FALSE

* * *

system: HeLa cell extract proteins (Homo sapiens)
Construct: endogenous in cells; host or cells: HeLa cell extract
Sequence (Q9NUI1 1-292): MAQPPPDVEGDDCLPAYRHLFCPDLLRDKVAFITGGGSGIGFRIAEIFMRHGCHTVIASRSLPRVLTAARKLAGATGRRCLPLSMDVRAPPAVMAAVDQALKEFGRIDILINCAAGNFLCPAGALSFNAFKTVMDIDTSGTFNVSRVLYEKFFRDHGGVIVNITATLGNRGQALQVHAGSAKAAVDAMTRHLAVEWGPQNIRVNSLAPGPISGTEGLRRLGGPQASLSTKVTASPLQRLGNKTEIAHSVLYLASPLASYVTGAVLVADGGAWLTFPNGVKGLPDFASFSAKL
Assay type: binding
applied.conditions: HeLa; protein DECR2
Can you tell me fold changes relative to vehicle control for the items I'm about to list?

Exam item: Give the measured fold changes relative to vehicle control of NCCOCCOCC(=O)Nc1nc2ncc(CNc3ccc(C(=O)NC(CCC(=O)O)C(=O)O)cc3)nc2c(=O)[nH]1 (stereo not drawn) [compound 6] .
Marked response: 0.94

Exam item: Give the measured fold changes relative to vehicle control of CCCCCCOc1ccc(Cc2cnc(N)nc2N)cc1 [compound 1] .
Marked response: 1

Exam item: Give the measured fold changes relative to vehicle control of Nc1nc2c(c(=O)[nH]1)N(C=O)C(CNc1ccc(C(=O)N[C@@H](CCC(=O)O)C(=O)O)cc1)CN2 (stereo partly drawn) [LEU, leucovorin] .
Marked response: 1.02

Exam item: Give the measured fold changes relative to vehicle control of CCCCCCOc1cccc(Cc2cnc(N)nc2N)c1 [compound 2] .
Marked response: 1.05

Exam item: Give the measured fold changes relative to vehicle control of Nc1nc2cccc(-c3ccccc3)c2n1Cc1ccc(Cl)c(Cl)c1 [compound 3] .
Marked response: 0.99

Exam item: Give the measured fold changes relative to vehicle control of NCCCNc1ccc(C(=O)NC(CCC(=O)O)C(=O)O)cc1 (stereo not drawn) [compound 7] .
Marked response: 0.93

* * *

system: HeLa cell extract proteins (Homo sapiens)
Construct: endogenous in cells; host or cells: HeLa cell extract
Type: binding
applied.conditions: protein PSMD2; HeLa
Could you please mark TRUE for values of fold changes relative to vehicle control below 1 and FALSE for values at or above it?

Exam item: Identify whether the compound CCCCCCOc1cccc(Cc2cnc(N)nc2N)c1 records fold changes relative to vehicle control below 1.
Marked response: FALSE

Exam item: Identify whether the compound Nc1nc2c(c(=O)[nH]1)N(C=O)C(CNc1ccc(C(=O)N[C@@H](CCC(=O)O)C(=O)O)cc1)CN2 (stereo partly drawn) records fold changes relative to vehicle control below 1.
Marked response: TRUE

* * *

system: HeLa cell extract proteins (Homo sapiens, UniProt Q9Y6M0)
Construct: endogenous in cells; host or cells: HeLa cell extract
Sequence (Q9Y6M0 42-314): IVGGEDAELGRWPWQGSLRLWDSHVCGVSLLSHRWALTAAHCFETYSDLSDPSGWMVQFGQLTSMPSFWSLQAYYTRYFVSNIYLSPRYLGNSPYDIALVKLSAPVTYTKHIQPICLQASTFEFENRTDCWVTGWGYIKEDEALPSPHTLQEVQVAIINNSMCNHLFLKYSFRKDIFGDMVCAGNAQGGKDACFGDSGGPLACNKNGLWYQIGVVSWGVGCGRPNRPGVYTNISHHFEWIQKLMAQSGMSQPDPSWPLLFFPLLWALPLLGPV
Type: binding
applied.conditions: HeLa; protein PRSS21
Could you please mark fulfilled for values of fold changes relative to vehicle control below 1 and not fulfilled for values at or above it?

Exam item: Identify whether the compound CCCCCCOc1cccc(Cc2cnc(N)nc2N)c1 [compound 2] records fold changes relative to vehicle control below 1.
Marked response: not fulfilled

Exam item: Identify whether the compound CCCCCCOc1ccc(Cc2cnc(N)nc2N)cc1 [compound 1] records fold changes relative to vehicle control below 1.
Marked response: not fulfilled

Exam item: Identify whether the compound Nc1nc2cccc(-c3ccccc3)c2n1Cc1ccc(Cl)c(Cl)c1 [compound 3] records fold changes relative to vehicle control below 1.
Marked response: not fulfilled

Exam item: Identify whether the compound NCCCNc1ccc(C(=O)NC(CCC(=O)O)C(=O)O)cc1 (stereo not drawn) [compound 7] records fold changes relative to vehicle control below 1.
Marked response: fulfilled

Exam item: Identify whether the compound NCCOCCOCC(=O)Nc1nc2ncc(CNc3ccc(C(=O)NC(CCC(=O)O)C(=O)O)cc3)nc2c(=O)[nH]1 (stereo not drawn) [compound 6] records fold changes relative to vehicle control below 1.
Marked response: fulfilled

* * *

system: HeLa cell extract proteins (Homo sapiens, UniProt Q71U36)
Construct: endogenous in cells; host or cells: HeLa cell extract
Sequence (Q71U36 whole entry): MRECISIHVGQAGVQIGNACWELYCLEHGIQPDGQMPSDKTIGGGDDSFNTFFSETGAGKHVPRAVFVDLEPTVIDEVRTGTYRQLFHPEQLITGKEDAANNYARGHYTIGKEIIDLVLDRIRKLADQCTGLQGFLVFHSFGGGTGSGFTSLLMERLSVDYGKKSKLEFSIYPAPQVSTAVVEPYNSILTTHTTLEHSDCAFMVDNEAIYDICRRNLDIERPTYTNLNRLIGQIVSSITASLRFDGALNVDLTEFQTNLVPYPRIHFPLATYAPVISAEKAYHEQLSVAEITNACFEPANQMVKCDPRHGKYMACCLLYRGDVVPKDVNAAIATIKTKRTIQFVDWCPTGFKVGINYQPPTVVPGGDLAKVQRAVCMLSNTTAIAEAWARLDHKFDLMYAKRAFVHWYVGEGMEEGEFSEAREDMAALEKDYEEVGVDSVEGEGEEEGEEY
Format: binding
applied.conditions: HeLa; protein TUBA1A
measured.parameter: fold changes relative to vehicle control

Exam item: Give the measured fold changes relative to vehicle control of Nc1nc2c(c(=O)[nH]1)N(C=O)C(CNc1ccc(C(=O)N[C@@H](CCC(=O)O)C(=O)O)cc1)CN2 (stereo partly drawn) .
Marked response: 0.95

Exam item: Give the measured fold changes relative to vehicle control of NCCCNc1ccc(C(=O)NC(CCC(=O)O)C(=O)O)cc1 (stereo not drawn) .
Marked response: 1

Exam item: Give the measured fold changes relative to vehicle control of CCCCCCOc1cccc(Cc2cnc(N)nc2N)c1 .
Marked response: 0.92

Exam item: Give the measured fold changes relative to vehicle control of CCCCCCOc1ccc(Cc2cnc(N)nc2N)cc1 .
Marked response: 0.95

Exam item: Give the measured fold changes relative to vehicle control of Nc1nc2cccc(-c3ccccc3)c2n1Cc1ccc(Cl)c(Cl)c1 .
Marked response: 1.06

Exam item: Give the measured fold changes relative to vehicle control of NCCOCCOCC(=O)Nc1nc2ncc(CNc3ccc(C(=O)NC(CCC(=O)O)C(=O)O)cc3)nc2c(=O)[nH]1 (stereo not drawn) .
Marked response: 0.97
